target: T1R1/T1R3 receptor (Felis catus); test: cell-based; type: cell-based; conditions: + Alanine; Table 17
Record form. Attribute: Max resp ΔF/F +Alanine. Fill in for each entry.
The response must contain the number and no unit.

Max resp ΔF/F +Alanine in this record for CCC(CC)NC(=O)c1ccc(OC)c(OC)c1 [3,4-dimethoxy-N-(pentan-3-yl)benzamide] : 0.545

Max resp ΔF/F +Alanine in this record for `CCC(CC)NC(=O)c1ccc(Br)o1` : 1.575

Max resp ΔF/F +Alanine in this record for `CCC(CC)NC(=O)/C=C/c1ccc(OC)cc1` : 0.7

Max resp ΔF/F +Alanine in this record for COc1ccc(/C=C/C(=O)NC2CCCCC2C)cc1 (stereo not shown) : 0.785

====

Record form. Attribute: Max resp % of Ala, +IMP (0.2 mM). Fill in for each entry.
biological target: T1R1/T1R3 receptor (Felis catus); assay: cell-based; settings: in the presence of 0.2 mM IMP; relative to alanine

Max resp % of Ala, +IMP (0.2 mM) in this record for Nc1ccccc1C(=O)NCCc1ccccc1 [2-amino-N-phenethylbenzamide] : 194.5%

Max resp % of Ala, +IMP (0.2 mM) in this record for O=C(O)C1CCCCC1C(=O)Nc1cc(Cl)cc(Cl)c1 (stereo not shown) : 157.9%

Max resp % of Ala, +IMP (0.2 mM) in this record for O=C(NCCc1c[nH]c2ccccc12)c1cccnc1 [N-(2-(1H-indol-3-yl)ethyl)nicotinamide, N-(2-(1H-Indol-3-yl)ethyl)nicotinamide] : 170.1%

Max resp % of Ala, +IMP (0.2 mM) in this record for `N[C@@H](Cc1ccc(O)cc1)C(=O)O` : 38.0%

Max resp % of Ala, +IMP (0.2 mM) in this record for CCOC(=O)NC(=O)C(c1ccccc1)c1ccccc1 [Ro 01-6128, reference compound] : 199.7%

Max resp % of Ala, +IMP (0.2 mM) in this record for `O=P(O)(O)OP(=O)(O)OP(=O)(O)OC[C@H]1O[C@@H](n2cnc3c(Cl)ncnc32)[C@H](O)[C@@H]1O` : 30.2%

Max resp % of Ala, +IMP (0.2 mM) in this record for `C[C@H](N)C(=O)O` : 100.0%

Max resp % of Ala, +IMP (0.2 mM) in this record for Nc1nc2c(ncn2[C@@H]2O[C@H](COP(=O)(O)OP(=O)(O)O)[C@@H](O)[C@H]2O)c(=S)[nH]1 [6-Thioguanosine-5′-O-diphosphate] : 9.3%

Max resp % of Ala, +IMP (0.2 mM) in this record for `N[C@@H](CS)C(=O)O` : 74.6%

Max resp % of Ala, +IMP (0.2 mM) in this record for `O=C(NCCc1ccccc1)c1ccc2c(c1)OCO2` : 92.0%

Max resp % of Ala, +IMP (0.2 mM) in this record for O=C(NCCc1ccccc1)c1ccccc1 [N-phenethylbenzamide] : 126.0%

Max resp % of Ala, +IMP (0.2 mM) in this record for O=C(NCCc1ccccc1)c1cccnc1 [N-phenethylnicotinamide] : 149.5%

Max resp % of Ala, +IMP (0.2 mM) in this record for O=C(NCCCCNC(=O)c1cccnc1)c1cccnc1 [N,N′-(butane-1,4-diyl)dinicotinamide] : 49.2%
